Target: PI3Kδ (p110δ/p85α) Recombinant Human Protein (Homo sapiens (Human), UniProt O00329)
Sequence (O00329 whole entry): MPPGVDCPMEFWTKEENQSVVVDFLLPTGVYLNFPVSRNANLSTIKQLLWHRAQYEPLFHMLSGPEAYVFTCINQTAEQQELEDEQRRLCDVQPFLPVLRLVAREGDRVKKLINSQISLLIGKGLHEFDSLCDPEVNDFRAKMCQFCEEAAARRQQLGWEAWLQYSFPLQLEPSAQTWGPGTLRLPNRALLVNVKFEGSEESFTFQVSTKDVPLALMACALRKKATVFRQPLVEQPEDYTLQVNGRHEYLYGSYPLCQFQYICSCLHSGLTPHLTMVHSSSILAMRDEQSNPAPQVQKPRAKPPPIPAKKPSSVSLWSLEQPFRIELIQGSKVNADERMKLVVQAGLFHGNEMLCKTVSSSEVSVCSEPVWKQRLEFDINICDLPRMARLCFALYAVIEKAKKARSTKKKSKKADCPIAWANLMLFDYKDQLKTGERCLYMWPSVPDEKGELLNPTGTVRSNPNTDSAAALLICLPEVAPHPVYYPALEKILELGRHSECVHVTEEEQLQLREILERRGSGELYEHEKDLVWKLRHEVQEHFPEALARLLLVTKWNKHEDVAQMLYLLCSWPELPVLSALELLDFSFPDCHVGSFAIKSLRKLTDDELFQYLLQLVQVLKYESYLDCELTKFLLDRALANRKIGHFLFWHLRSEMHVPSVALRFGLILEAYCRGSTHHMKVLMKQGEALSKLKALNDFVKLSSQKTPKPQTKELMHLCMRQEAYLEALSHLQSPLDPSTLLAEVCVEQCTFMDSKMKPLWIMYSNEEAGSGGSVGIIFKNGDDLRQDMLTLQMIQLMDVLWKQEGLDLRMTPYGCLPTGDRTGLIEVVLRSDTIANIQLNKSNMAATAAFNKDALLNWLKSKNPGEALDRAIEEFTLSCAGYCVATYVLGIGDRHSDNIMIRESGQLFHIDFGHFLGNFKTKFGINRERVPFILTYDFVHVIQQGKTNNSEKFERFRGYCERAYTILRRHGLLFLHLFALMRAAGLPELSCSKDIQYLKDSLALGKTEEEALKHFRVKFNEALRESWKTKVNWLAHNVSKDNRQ
Sequence (P27986 whole entry partner): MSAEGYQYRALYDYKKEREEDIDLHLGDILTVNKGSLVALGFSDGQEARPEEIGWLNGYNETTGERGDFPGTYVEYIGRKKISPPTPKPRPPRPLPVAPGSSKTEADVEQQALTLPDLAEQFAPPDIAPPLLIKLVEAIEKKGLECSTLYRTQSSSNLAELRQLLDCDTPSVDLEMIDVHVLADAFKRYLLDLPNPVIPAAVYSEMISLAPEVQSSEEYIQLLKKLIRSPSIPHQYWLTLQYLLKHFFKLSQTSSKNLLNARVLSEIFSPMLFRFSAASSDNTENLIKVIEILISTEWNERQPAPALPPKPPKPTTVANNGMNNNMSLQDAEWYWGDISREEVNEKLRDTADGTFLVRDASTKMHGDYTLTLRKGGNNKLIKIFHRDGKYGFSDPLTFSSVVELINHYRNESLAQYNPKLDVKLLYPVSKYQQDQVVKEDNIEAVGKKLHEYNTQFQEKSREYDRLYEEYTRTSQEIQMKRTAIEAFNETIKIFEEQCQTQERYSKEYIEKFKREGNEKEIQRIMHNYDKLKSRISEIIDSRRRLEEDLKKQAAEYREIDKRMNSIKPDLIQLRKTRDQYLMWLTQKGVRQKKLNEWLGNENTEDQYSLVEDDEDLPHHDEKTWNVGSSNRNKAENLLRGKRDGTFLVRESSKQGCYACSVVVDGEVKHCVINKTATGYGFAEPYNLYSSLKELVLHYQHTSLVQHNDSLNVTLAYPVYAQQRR
Experiment: PI3Kδ Scintillation Proximity Assay
Excerpt: Example C. PI3Kδ Scintillation Proximity Assay [γ-^33P]ATP (10 mCi/mL) and Wheat Germ Agglutinin (WGA) YSi SPA Scintillation Beads was purchased from Perkin-Elmer (Waltham, Mass.). Lipid kinase substrate, D-myo-Phosphatidylinositol 4,5-bisphosphate (PtdIns(4,5)P2)D (+)-sn-1,2-di-O-octanoylglyceryl, 3-O-phospho linked (PIP2), CAS 204858-53-7, was purchased from Echelon Biosciences (Salt Lake City, Utah). PI3Kδ (p110δ/p85α) Recombinant Human Protein was purchased from Eurofins (St Charles, Mo.). […]
Counter-ions that a name gives are not always drawn.
Listing: IC50 of selected compounds
QUANTITY_KIND: IC50

Cc1ccc(S(=O)(=O)N[C@H]2C[C@H](C#N)C2)cc1-c1cnc2c(N)ncnn12 [Example 89, trifluoroacetate salt] ... 100 to 500 nM
Cc1ccc(S(=O)(=O)N2CCCC23CCOC3)cc1-c1cnc2c(N)ncnn12 (stereo not shown) ... 500 to 2000 nM
Cc1ccc(S(=O)(=O)NC23CC(c4nccs4)(C2)C3)cc1-c1cnc2c(N)ncnn12 [Example 114, trifluoroacetate salt] ... 100 to 500 nM
CC(=O)N[C@H]1CC[C@H](NS(=O)(=O)c2ccc(C)c(-c3cnc4c(N)nccn34)c2)CC1 ... 500 to 2000 nM
Cc1ccc(S(=O)(=O)N2CCCC2c2c(C)noc2C)cc1-c1cnc2c(N)nc(C(F)(F)F)cn12 (stereo not shown) ... 500 to 2000 nM
CC(=O)N1CC(O)(CNS(=O)(=O)c2ccc(C)c(-c3cnc4c(N)nc(C(F)(F)F)nn34)c2)C1 [Example 325, trifluoroacetate salt] ... < 100 nM
Cc1ccc(S(=O)(=O)N[C@H]2COC[C@@H]2O)cc1-c1cnc2c(N)ncnn12 ... 500 to 2000 nM

====

Biological target: PI3Kδ (p110δ/p85α) Recombinant Human Protein (Homo sapiens (Human))
Assay: PI3Kδ Scintillation Proximity Assay
Structures can show the parent of a compound that is named as a salt.
QUANTITY_KIND: IC50

Cc1ccc(S(=O)(=O)NC23CCC(CO)(C2)C3)cc1-c1cnc2c(N)ncnn12 [Example 107, trifluoroacetate salt] ... 100 to 500 nM
Cc1ccc(S(=O)(=O)NC23CCC(C(=O)O)(C2)C3)cc1-c1cnc2c(N)ncnn12 ... 500 to 2000 nM
COc1cccc(F)c1-c1cn2c(-c3cc(S(C)(=O)=O)ccc3C)cnc2c(N)n1 [Example 478, trifluoroacetate] ... 500 to 2000 nM
Cc1ccc(S(=O)(=O)N2CCCCC23CC3)cc1-c1cnc2c(N)ncnn12 ... 100 to 500 nM
CNC(=O)c1cn2c(-c3cc(S(=O)(=O)NC4CC(F)(F)C4)ccc3C)cnc2c(N)n1 [Example 447, trifluoroacetate salt] ... 500 to 2000 nM
Cc1ccc(S(=O)(=O)NCC2(C#N)CCC2)cc1-c1cnc2c(N)ncnn12 [Example 102, trifluoroacetate salt] ... 100 to 500 nM
Cc1ccc(S(=O)(=O)N(C)C2CC(O)C2)cc1-c1cnc2c(N)ncnn12 (centres unmarked) ... > 2000 nM
Cc1ccc(S(=O)(=O)N(C)[C@H]2CC[C@H](O)CC2)cc1-c1cnc2c(N)ncnn12 ... 500 to 2000 nM
Cc1ccc(S(=O)(=O)NC23CC(c4nnn[nH]4)(C2)C3)cc1-c1cnc2c(N)ncnn12 [Example 99, trifluoroacetate salt] ... 500 to 2000 nM
Cc1ccc(S(=O)(=O)N[C@H]2CC[C@H](O)CC2)cc1-c1cnc2c(N)nc(-c3cccc(F)c3)cn12 ... < 100 nM
CCN(CC)CCCCNC(=O)c1cn2c(-c3cc(S(C)(=O)=O)ccc3C)cnc2c(N)n1 [Example 452, trifluoroacetate salt] ... 100 to 500 nM
Cc1ccc(S(=O)(=O)NC23CCC(C#N)(CC2)C3)cc1-c1cnc2c(N)ncnn12 [Example 90, trifluoroacetate salt] ... 100 to 500 nM
Cc1ccc(S(=O)(=O)N2CCCC23CCOCC3)cc1-c1cnc2c(N)ncnn12 ... 500 to 2000 nM
Cc1ccc(S(=O)(=O)NC2CCOC2C)cc1-c1cnc2c(N)ncnn12 (centres unmarked) [Example 100, trifluoroacetate salt] ... 500 to 2000 nM
CNC(=O)c1ccc(F)c(-c2cn3c(-c4cc(S(=O)(=O)N[C@H]5CC[C@H](O)CC5)ccc4C)cnc3c(N)n2)c1 ... < 100 nM
Cc1ccc(S(=O)(=O)N[C@H]2C[C@H](C#N)C2)cc1-c1cnc2c(N)ncnn12 [Example 370, trifluoroacetate salt] ... 100 to 500 nM
Cc1ccc(S(=O)(=O)N(CCC#N)C2CCCC2)cc1-c1cnc2c(N)nc(C(F)(F)F)nn12 ... 100 to 500 nM
Cc1ccc(S(=O)(=O)NC23CC(CC#N)(C2)C3)cc1-c1cnc2c(N)nc(C(F)(F)F)cn12 [Example 276, trifluoroacetate salt] ... 100 to 500 nM
Cc1cc(-c2cn3c(-c4cc(S(=O)(=O)N[C@H]5CC[C@H](O)CC5)ccc4C)cnc3c(N)n2)on1 ... < 100 nM
Cc1ccc(S(=O)(=O)N2CCNC[C@@H]2CO)cc1-c1cnc2c(N)ncnn12 ... 100 to 500 nM
Cc1ccc(S(=O)(=O)N[C@H]2CC[C@H](O)CC2)cc1-c1cnc2c(N)cc(-c3cncnc3)cn12 ... 500 to 2000 nM
Cc1ccc(NS(=O)(=O)C2CCOCC2)cc1-c1cnc2c(N)nccn12 ... 500 to 2000 nM
[2H]C([2H])([2H])c1ccc(S(=O)(=O)N2CCCC(CO)C2)cc1-c1cnc2c(N)nc(C(F)(F)F)cn12 (centres unmarked) ... 100 to 500 nM
Cc1ccc(S(=O)(=O)N(CCC#N)C2CC2)cc1-c1cnc2c(N)nc(C(F)(F)F)nn12 ... 100 to 500 nM
Cc1ccc(S(=O)(=O)NC2CCCCC2O)cc1-c1cnc2c(N)ncnn12 (centres unmarked) ... 500 to 2000 nM
Cc1cc(C)c(S(=O)(=O)NCC(C)(C)O)cc1-c1cnc2c(N)nccn12 ... 100 to 500 nM
[2H][C@]1(NS(=O)(=O)c2ccc(C)c(-c3cnc4c(N)ncnn34)c2)CC[C@](C)(O)CC1 ... 100 to 500 nM
Cc1ccc(S(=O)(=O)NC2(C#N)CCC2)cc1-c1cnc2c(N)ncnn12 [Example 192, trifluoroacetate] ... 100 to 500 nM
Cc1nc(N)c2ncc(-c3ccc(F)c(S(=O)(=O)NC45CCC(C#N)(C4)C5)c3)n2n1 [Example 387, trifluoroacetate salt] ... 100 to 500 nM

====

Target: PI3Kδ (p110δ/p85α) Recombinant Human Protein (Homo sapiens (Human), UniProt O00329)
Assay: PI3Kδ Scintillation Proximity Assay
pIC50: −log10 of the molar value. Structures can show the parent of a compound that is named as a salt.
QUANTITY_KIND: pIC50

Cc1ccc(S(=O)(=O)N(C)CCC#N)cc1-c1cnc2c(N)nc(C(F)(F)F)nn12 ... > 7.00
[2H]C([2H])([2H])c1nc(N)c2ncc(-c3cc(S(=O)(=O)NCC(C)(C)O)cc(F)c3C([2H])([2H])[2H])n2n1 ... 6.30 to 7.00
Cc1ccc(S(C)(=O)=O)cc1-c1cnc2c(N)nc(-c3ccc(N)nc3)cn12 [Example 482, trifluoroacetate] ... 5.70 to 6.30
Cc1ccc(S(=O)(=O)NC23CCC(CO)(C2)C3)cc1-c1cnc2c(N)nc(C(F)(F)F)nn12 [Example 328, trifluoroacetate salt] ... 6.30 to 7.00
Cc1ccc(S(=O)(=O)N2CC(F)C2)cc1-c1cnc2c(N)ncnn12 ... 5.70 to 6.30
Cc1ccc(S(=O)(=O)NC23CCC(CO)(C2)C3)cc1-c1cnc2c(N)nc(C(F)(F)F)cn12 [Example 275, trifluoroacetate salt] ... 6.30 to 7.00
Cc1ccc(S(=O)(=O)NCC2CCS(=O)(=O)C2)cc1-c1cnc2c(N)ncnn12 (stereo not shown) ... 6.30 to 7.00

====

Molecular target: PI3Kδ (p110δ/p85α) Recombinant Human Protein (Homo sapiens (Human))
Assay: PI3Kδ Scintillation Proximity Assay
pIC50: −log10 of the molar value. Structures can show the parent of a compound that is named as a salt.
Listing: pIC50 of selected compounds
QUANTITY_KIND: pIC50

COc1cn[nH]c1-c1cn2c(-c3cc(S(C)(=O)=O)ccc3C)cnc2c(N)n1 [Example 491, trifluoroacetate] ... 6.30 to 7.00
COC(=O)NC12CC(NS(=O)(=O)c3ccc(C)c(-c4cnc5c(N)ncnn45)c3)(C1)C2 [Example 115, trifluoroacetate salt] ... 5.70 to 6.30
O=C(O)C(F)(F)F.[2H]C([2H])([2H])c1ccc(S(=O)(=O)NC23CCC(C#N)(C2)C3)cc1-c1cnc2c(N)nc(C)nn12 ... 6.30 to 7.00
COc1nc(CO)ccc1-c1cn2c(-c3cc(S(C)(=O)=O)ccc3C)cnc2c(N)n1 [Example 490, trifluoroacetate] ... 6.30 to 7.00
Nc1nccn2c(-c3ccc(Cl)c(S(=O)(=O)N[C@H]4CC[C@H](O)CC4)c3)cnc12 ... 6.30 to 7.00
Cc1ccc(S(=O)(=O)NC23CC(Cn4cncn4)(C2)C3)cc1-c1cnc2c(N)nc(C(F)(F)F)cn12 ... 6.30 to 7.00
Cc1ncc(-c2cn3c(-c4cc(S(=O)(=O)N[C@H]5CC[C@H](O)CC5)ccc4C)cnc3c(N)n2)s1 ... 6.30 to 7.00
Cc1ccc(S(=O)(=O)NC23CC(C(F)F)(C2)C3)cc1-c1cnc2c(N)nc(C(F)(F)F)nn12 [Example 339, trifluoroacetate salt] ... 6.30 to 7.00
N#CC12CCC(NS(=O)(=O)c3cccc(-c4cnc5c(N)nc(C(F)(F)F)nn45)c3)(C1)C2 [Example 415, trifluoroacetate salt] ... 6.30 to 7.00
Cc1ccc(S(=O)(=O)N2CCN3C(=O)OC[C@H]3C2)cc1-c1cnc2c(N)ncnn12 ... < 5.70
Nc1nccn2c(-c3ccc(F)c(S(=O)(=O)NCC4(CO)CCOCC4)c3)cnc12 ... 6.30 to 7.00
Cc1ccc(S(=O)(=O)NC23COC(CO)(C2)C3)cc1-c1cnc2c(N)nc(C(F)(F)F)cn12 [Example 428, trifluoroacetate salt] ... 6.30 to 7.00
Cc1ccc(-c2cnc3c(N)ncnn23)cc1S(=O)(=O)NC12CCC(C#N)(C1)C2 [Example 369, trifluoroacetate salt] ... 6.30 to 7.00
Cc1ccc(S(=O)(=O)N[C@H]2CC[C@@H](C#N)C2)cc1-c1cnc2c(N)nc(C(F)(F)F)nn12 (single isomer, unassigned) [Example 321] ... > 7.00
Cc1ccc(S(=O)(=O)N[C@H]2C[C@H](CO)C2)cc1-c1cnc2c(N)nc(C(F)(F)F)nn12 [Example 323, trifluoroacetate salt] ... 6.30 to 7.00
Cc1ccc(S(=O)(=O)NC23CC(CO)(C2)C3)cc1-c1cnc2c(N)nc(C(F)(F)F)nn12 ... 6.30 to 7.00
Cc1ccc(S(=O)(=O)NC2CCC(F)(F)CC2)cc1-c1cnc2c(N)nccn12 ... 5.70 to 6.30
Cc1cc(F)c(S(=O)(=O)N2CCCC(CO)C2)cc1-c1cnc2c(N)nc(C(F)(F)F)cn12 (stereo not drawn) ... 6.30 to 7.00
Cc1ccc(S(=O)(=O)NCC2(CO)CCOCC2)cc1-c1cnc2c(N)nc(C(F)(F)F)nn12 [Example 334, trifluoroacetate salt] ... 6.30 to 7.00
Cc1ccc(S(=O)(=O)N2CC3(CC(O)C3)C2)cc1-c1cnc2c(N)ncnn12 [Example 145, TFA] ... 6.30 to 7.00
Cc1ccc(S(=O)(=O)N[C@H]2CC[C@H](CO)OC2)cc1-c1cnc2c(N)nc(C(F)(F)F)cn12 ... 6.30 to 7.00
Cc1nc(N)c2ncc(-c3cc(S(=O)(=O)N[C@H]4CC[C@](C)(O)CC4)ccc3C)n2n1 [Example 271, trifluoroacetate salt] ... 6.30 to 7.00
CCOc1ncc(-c2cnc3c(N)cc(Cl)cn23)cc1NS(=O)(=O)CC [Example 7, bis(trifluoroacetate)] ... 5.70 to 6.30
Cc1ccc(S(=O)(=O)N2CCCC(CNC(=O)CN(C)C)C2)cc1-c1cnc2c(N)nc(C(F)(F)F)cn12 (stereo not drawn) ... 5.70 to 6.30
Cc1ccc(S(=O)(=O)N[C@H]2CC[C@H](NC(=O)OC(C)(C)C)CC2)cc1-c1cnc2c(N)ncnn12 ... < 5.70
O=C(O)C(F)(F)F.[2H]C([2H])([2H])c1ccc(S(=O)(=O)NC23CC(CO)(C2)C3)cc1-c1cnc2c(N)nc(C(F)(F)F)cn12 ... 6.30 to 7.00
Cc1ccc(S(=O)(=O)N2CCC3(CCC(F)(F)CC3)C2)cc1-c1cnc2c(N)ncnn12 ... 6.30 to 7.00
